Source: patent US9815846B2

Overview of recorded IC50 for various molecules
# target entity: human TrkA receptor (Homo sapiens (Human))
# Sequence (P04629 33-796): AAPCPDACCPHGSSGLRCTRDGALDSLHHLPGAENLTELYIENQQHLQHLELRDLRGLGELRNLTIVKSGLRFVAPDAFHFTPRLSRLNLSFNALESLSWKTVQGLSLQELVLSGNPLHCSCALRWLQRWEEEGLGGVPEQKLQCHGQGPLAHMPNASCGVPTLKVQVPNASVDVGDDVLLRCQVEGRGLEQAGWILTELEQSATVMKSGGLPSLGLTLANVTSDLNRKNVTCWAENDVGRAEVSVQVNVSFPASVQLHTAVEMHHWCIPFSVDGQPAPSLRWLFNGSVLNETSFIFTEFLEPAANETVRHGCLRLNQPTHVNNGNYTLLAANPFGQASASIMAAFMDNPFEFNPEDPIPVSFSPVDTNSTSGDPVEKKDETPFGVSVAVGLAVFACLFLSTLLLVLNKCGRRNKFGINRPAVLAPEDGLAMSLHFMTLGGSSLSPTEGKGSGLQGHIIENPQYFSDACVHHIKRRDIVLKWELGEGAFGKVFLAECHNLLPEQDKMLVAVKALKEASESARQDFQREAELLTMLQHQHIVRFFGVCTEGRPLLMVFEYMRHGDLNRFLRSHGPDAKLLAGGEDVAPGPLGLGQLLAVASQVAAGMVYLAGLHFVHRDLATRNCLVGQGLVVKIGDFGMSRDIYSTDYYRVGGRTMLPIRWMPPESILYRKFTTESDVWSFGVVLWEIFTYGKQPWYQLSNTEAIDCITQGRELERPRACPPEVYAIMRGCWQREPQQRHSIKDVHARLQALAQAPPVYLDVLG
# experimental details: DiscoverX PathHunter TrkA functional assay (NGF-stimulated U2OS cells)
# particulars: U2OS cells expressing human TrkA-PK, Shc1-EA and p75NTR; compound 1 h, then NGF at ~80% of maximal response for 3 h; luminescence
The reply should be a number in nM, with the unit left off.

INPUT: Give the measured IC50 of Cc1ncc(NC(=O)c2ccc(C(F)(F)F)c(-c3cscn3)c2)c(-c2ccccc2)n1 [Example 12] .
OUTPUT: 36

INPUT: Give the measured IC50 of Cn1ccc(-c2cc(C(=O)Nc3ncc(CNC(=O)CO)cc3-c3ccccc3)c(F)cc2C(F)(F)F)n1 [Example 69] .
OUTPUT: 18

More entries:
INPUT: Give the measured IC50 of Cc1cc(-c2ccccc2NC(=O)c2cccc(-c3nccs3)c2)n[nH]1 [Example 7] .
OUTPUT: 4000

INPUT: Give the measured IC50 of Cn1ccc(-c2cc(C(=O)Nc3cnc(CC(=O)N4CCNCC4)nc3-c3ccccc3)c(F)cc2C(F)(F)F)n1 [Example 114] .
OUTPUT: 3
